- assay-name: Pharmacokinetic drug-drug interaction of the compound of the formula I and ritonavir in healthy volunteers (single dose, alone and with RTV)
- Type: in vivo, human
- experimental-context: human, plasma, oral, 12.5 mg, 12.5 mg alone (no RTV), mean (Table 1)
experimental-endpoint: AUC(0-t) (ng·h/mL)
Write down the numeric answer in ng·h/mL and omit the unit.

Problem: Could you share which AUC(0-t) value was measured for CCN1c2ncc(CCOc3cc[n+]([O-])c4ccccc34)cc2C(=O)N(C)c2cccnc21 [the compound of the formula I] ?
Solution: 57.1

###

- assay-name: Pharmacokinetic drug-drug interaction of the compound of the formula I and ritonavir in healthy volunteers (single dose, alone and with RTV)
- Type: in vivo, human
- experimental-context: human, plasma, po, 12.5 mg, 12.5 mg oral single dose alone; mean (Table 2)
experimental-endpoint: Cmax
Quick note: unit goes after the number.

Problem: Could you share which Cmax value was measured for CCN1c2ncc(CCOc3cc[n+]([O-])c4ccccc34)cc2C(=O)N(C)c2cccnc21 [the compound of the formula I] ?
Solution: 14.8 ng/mL

###

- assay-name: Pharmacokinetic drug-drug interaction of the compound of the formula I and ritonavir in healthy volunteers (single dose, alone and with RTV)
- Assay type: in vivo, human
- experimental-context: human, plasma, po, 75 mg, 75 mg oral single dose alone; mean
experimental-endpoint: Cmax

Problem: Could you share which Cmax value was measured for CCN1c2ncc(CCOc3cc[n+]([O-])c4ccccc34)cc2C(=O)N(C)c2cccnc21 ?
Solution: 348 ng/mL

###

- assay-name: Pharmacokinetic drug-drug interaction of the compound of the formula I and ritonavir in healthy volunteers (single dose, alone and with RTV)
- Format: in vivo, human
- experimental-context: human, plasma, po, 12.5 mg, 12.5 mg oral single dose alone; mean (Table 2); read-out: Half-life (converted)
experimental-endpoint: half-life (h)
Write down the numeric answer in h and omit the unit.

Problem: Could you share which half-life value was measured for CCN1c2ncc(CCOc3cc[n+]([O-])c4ccccc34)cc2C(=O)N(C)c2cccnc21 ?
Solution: 4.1

###

- assay-name: Pharmacokinetic drug-drug interaction of the compound of the formula I and ritonavir in healthy volunteers (single dose, alone and with RTV)
- Type: in vivo, human
- experimental-context: human, plasma, oral, 5 mg solution + RTV 100 mg (12 h before and co-administered); plasma, mean
experimental-endpoint: AUC(0-t) (ng·h/mL)
Write down the numeric answer in ng·h/mL and omit the unit.

Problem: Could you share which AUC(0-t) value was measured for CCN1c2ncc(CCOc3cc[n+]([O-])c4ccccc34)cc2C(=O)N(C)c2cccnc21 [the compound of the formula I] ?
Solution: 578

###

- assay-name: Pharmacokinetic drug-drug interaction of the compound of the formula I and ritonavir in healthy volunteers (single dose, alone and with RTV)
- Type: in vivo, human
- experimental-context: human, plasma, po, 100 mg, 100 mg oral single dose alone; mean
experimental-endpoint: Cmax (ng/mL)
Write down the numeric answer in ng/mL and omit the unit.

Problem: Could you share which Cmax value was measured for CCN1c2ncc(CCOc3cc[n+]([O-])c4ccccc34)cc2C(=O)N(C)c2cccnc21 ?
Solution: 937

###

- assay-name: Pharmacokinetic drug-drug interaction of the compound of the formula I and ritonavir in healthy volunteers (single dose, alone and with RTV)
- Format: in vivo, human
- experimental-context: human, plasma, po, 50 mg, 50 mg oral single dose alone; mean; read-out: Half-life (converted)
experimental-endpoint: half-life

Problem: Could you share which half-life value was measured for CCN1c2ncc(CCOc3cc[n+]([O-])c4ccccc34)cc2C(=O)N(C)c2cccnc21 [the compound of the formula I] ?
Solution: 2.5 h

###

- assay-name: Pharmacokinetic drug-drug interaction of the compound of the formula I and ritonavir in healthy volunteers (single dose, alone and with RTV)
- Format: in vivo, human
- experimental-context: human, plasma, oral, 5 mg, 5 mg alone (no RTV), mean
experimental-endpoint: AUC(0-t)

Problem: Could you share which AUC(0-t) value was measured for CCN1c2ncc(CCOc3cc[n+]([O-])c4ccccc34)cc2C(=O)N(C)c2cccnc21 [the compound of the formula I] ?
Solution: 13.6 ng·h/mL

###

- assay-name: Pharmacokinetic drug-drug interaction of the compound of the formula I and ritonavir in healthy volunteers (single dose, alone and with RTV)
- Format: in vivo, human
- experimental-context: human, plasma; 12.5 mg oral single dose alone; mean (Table 2)
experimental-endpoint: AUC (ng·h/mL)
Write down the numeric answer in ng·h/mL and omit the unit.

Problem: Could you share which AUC value was measured for CCN1c2ncc(CCOc3cc[n+]([O-])c4ccccc34)cc2C(=O)N(C)c2cccnc21 [the compound of the formula I] ?
Solution: 63.1

###

- assay-name: Pharmacokinetic drug-drug interaction of the compound of the formula I and ritonavir in healthy volunteers (single dose, alone and with RTV)
- Format: in vivo, human
- experimental-context: human, plasma; 25 mg oral single dose alone; mean
experimental-endpoint: AUC (ng·h/mL)
Write down the numeric answer in ng·h/mL and omit the unit.

Problem: Could you share which AUC value was measured for CCN1c2ncc(CCOc3cc[n+]([O-])c4ccccc34)cc2C(=O)N(C)c2cccnc21 ?
Solution: 139

###

- assay-name: Pharmacokinetic drug-drug interaction of the compound of the formula I and ritonavir in healthy volunteers (single dose, alone and with RTV)
- Format: in vivo, human
- experimental-context: human, plasma, oral, 5 mg solution + RTV 100 mg; plasma, mean
- Experimental: A single-dose, single treatment group was studied to assess the pharmacokinetic drug-drug interaction potential between the protease inhibitors the compound of the formula I and ritonavir. […] Pharmacokinetic parameters such as AUC, Cmax, tmax, oral clearance, and terminal half-life were determined using standard noncompartmental techniques.
experimental-endpoint: Cmax (ng/mL)
Write down the numeric answer in ng/mL and omit the unit.

Problem: Could you share which Cmax value was measured for CCN1c2ncc(CCOc3cc[n+]([O-])c4ccccc34)cc2C(=O)N(C)c2cccnc21 ?
Solution: 22.8

###

- assay-name: Pharmacokinetic drug-drug interaction of the compound of the formula I and ritonavir in healthy volunteers (single dose, alone and with RTV)
- Type: in vivo, human
- experimental-context: human, plasma, oral, 12.5 mg, 12.5 mg alone (no RTV); plasma, mean (Table 1); read-out: half-life (converted)
experimental-endpoint: half-life
Quick note: unit goes after the number.

Problem: Could you share which half-life value was measured for CCN1c2ncc(CCOc3cc[n+]([O-])c4ccccc34)cc2C(=O)N(C)c2cccnc21 ?
Solution: 4.1 h

###

- assay-name: Pharmacokinetic drug-drug interaction of the compound of the formula I and ritonavir in healthy volunteers (single dose, alone and with RTV)
- Type: in vivo, human
- experimental-context: human, plasma, oral, 5 mg solution + RTV 100 mg; plasma, mean
experimental-endpoint: Tmax (h)
Write down the numeric answer in h and omit the unit.

Problem: Could you share which Tmax value was measured for CCN1c2ncc(CCOc3cc[n+]([O-])c4ccccc34)cc2C(=O)N(C)c2cccnc21 [the compound of the formula I] ?
Solution: 4

###

- assay-name: Pharmacokinetic drug-drug interaction of the compound of the formula I and ritonavir in healthy volunteers (single dose, alone and with RTV)
- Format: in vivo, human
- experimental-context: human, plasma; 100 mg oral single dose alone; mean
experimental-endpoint: AUC (ng·h/mL)
Write down the numeric answer in ng·h/mL and omit the unit.

Problem: Could you share which AUC value was measured for CCN1c2ncc(CCOc3cc[n+]([O-])c4ccccc34)cc2C(=O)N(C)c2cccnc21 ?
Solution: 1390

###

- assay-name: Pharmacokinetic drug-drug interaction of the compound of the formula I and ritonavir in healthy volunteers (single dose, alone and with RTV)
- Format: in vivo, human
- experimental-context: human, plasma, oral, 12.5 mg solution + RTV 100 mg; plasma, mean
experimental-endpoint: Tmax (h)
Write down the numeric answer in h and omit the unit.

Problem: Could you share which Tmax value was measured for CCN1c2ncc(CCOc3cc[n+]([O-])c4ccccc34)cc2C(=O)N(C)c2cccnc21 [the compound of the formula I] ?
Solution: 3.59

###

- assay-name: Pharmacokinetic drug-drug interaction of the compound of the formula I and ritonavir in healthy volunteers (single dose, alone and with RTV)
- Format: in vivo, human
- experimental-context: human, plasma, po, 12.5 mg, 12.5 mg oral single dose alone; mean (Table 2)
experimental-endpoint: Tmax (h)
Write down the numeric answer in h and omit the unit.

Problem: Could you share which Tmax value was measured for CCN1c2ncc(CCOc3cc[n+]([O-])c4ccccc34)cc2C(=O)N(C)c2cccnc21 ?
Solution: 1

###

- assay-name: Pharmacokinetic drug-drug interaction of the compound of the formula I and ritonavir in healthy volunteers (single dose, alone and with RTV)
- Assay type: in vivo, human
- experimental-context: human, plasma, oral, co-administration with ritonavir 100 mg; read-out: half-life upon co-administration with ritonavir (converted)
experimental-endpoint: half-life (h)
Write down the numeric answer in h and omit the unit.

Problem: Could you share which half-life value was measured for CCN1c2ncc(CCOc3cc[n+]([O-])c4ccccc34)cc2C(=O)N(C)c2cccnc21 ?
Solution: 15

###

- assay-name: Pharmacokinetic drug-drug interaction of the compound of the formula I and ritonavir in healthy volunteers (single dose, alone and with RTV)
- Type: in vivo, human
- experimental-context: human, plasma, po, 25 mg, 25 mg oral single dose alone; mean; read-out: Half-life (converted)
experimental-endpoint: half-life (h)
Write down the numeric answer in h and omit the unit.

Problem: Could you share which half-life value was measured for CCN1c2ncc(CCOc3cc[n+]([O-])c4ccccc34)cc2C(=O)N(C)c2cccnc21 ?
Solution: 3.44
